# Target System: N-formyl peptide receptor 2 (Homo sapiens, UniProt P25090)
# Sequence (P25090 whole entry): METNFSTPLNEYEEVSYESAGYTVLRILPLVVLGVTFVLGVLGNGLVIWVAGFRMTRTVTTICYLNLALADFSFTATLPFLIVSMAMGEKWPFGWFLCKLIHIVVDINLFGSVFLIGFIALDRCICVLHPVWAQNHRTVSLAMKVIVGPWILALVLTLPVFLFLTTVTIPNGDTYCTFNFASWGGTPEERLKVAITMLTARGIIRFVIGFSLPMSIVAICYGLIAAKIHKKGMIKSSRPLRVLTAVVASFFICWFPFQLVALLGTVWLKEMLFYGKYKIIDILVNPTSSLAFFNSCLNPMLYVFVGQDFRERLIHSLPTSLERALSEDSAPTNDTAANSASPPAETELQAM
Parameter Measured: EC50 (nM)

COc1cc(F)c(-n2cc(C(=O)N3CC[C@H](O)C3)nc2NC(=O)c2ccc(OC(F)F)cc2)c(F)c1 [WO2022076764, Example 57] ... 1900
COc1cc(F)c(-n2cc(C(=O)NCc3cc[nH]n3)nc2NC(=O)c2ccc(OC(F)F)cc2)c(F)c1 [WO2022076764, Example 44] ... 370

[A] COc1ccc(-n2cc(C(=O)N3CCNCC3)nc2NC(=O)c2ccc(OC(F)F)cc2)cc1 [WO2022076764, Example 45]
[B] COc1ccc(-n2cc(-c3ccc4sccc4c3)nc2NC(=O)c2ccc(OC(F)F)cc2)cc1 [WO2022076764, Example 22]
Could you point out whether the larger EC50 belongs to A or to B ? Indicate your choice by writing its label. A

[1] CCc1cn(-c2c(F)cc(OC)cc2F)c(NC(=O)c2ccc(OC(F)F)cc2)n1 [WO2022076764, Example 39]
[2] COc1cc(F)c(-n2cc(C3CCOCC3)nc2NC(=O)c2ccc(OC(F)F)cc2)c(F)c1 [WO2022076764, Example 41]
[3] COc1cc(F)c(-n2cc(C(=O)NCCO)nc2NC(=O)c2ccc(OC(F)F)cc2)c(F)c1 [WO2022076764, Example 53]
[4] CCOC(=O)c1cn(-c2ccc(OC)cc2)c(NC(=O)c2ccc(OC(F)F)cc2)n1 [WO2022076764, Example 30]
[5] COc1cc(F)c(-n2cc(-c3ccn[nH]3)nc2NC(=O)c2ccc(OC(F)F)cc2)c(F)c1 [WO2022076764, Example 80]
List by increasing EC50. Thanks in advance for listing the labels in the requested order. 4, 2, 5, 1, 3
(4: 100 nM, 2: 230 nM, 5: 500 nM, 1: 1000 nM, 3: 4100 nM)

[A] COc1cc(F)c(-n2cc(-c3ccccc3F)nc2NC(=O)c2ccc(OC(F)F)cc2)c(F)c1 [WO2022076764, Example 33]
[B] COc1cc(F)c(-n2cc(C3CNC3)nc2NC(=O)c2ccc(OC(F)F)cc2)c(F)c1 [WO2022076764, Example 79]
[C] COc1ccc(-n2cc(-c3nc4cc(Cl)ccc4o3)nc2NC(=O)c2ccc(OC(F)F)cc2)cc1 [WO2022076764, Example 26]
Thanks in advance: please rank these 3 entries by EC50, highest to lowest. Thanks in advance for listing the labels in the requested order. B, A, C
(B: 4200 nM, A: 940 nM, C: 400 nM)

* * *

# Target System: fMet-Leu-Phe receptor (Homo sapiens)
# Sequence (P21462 whole entry): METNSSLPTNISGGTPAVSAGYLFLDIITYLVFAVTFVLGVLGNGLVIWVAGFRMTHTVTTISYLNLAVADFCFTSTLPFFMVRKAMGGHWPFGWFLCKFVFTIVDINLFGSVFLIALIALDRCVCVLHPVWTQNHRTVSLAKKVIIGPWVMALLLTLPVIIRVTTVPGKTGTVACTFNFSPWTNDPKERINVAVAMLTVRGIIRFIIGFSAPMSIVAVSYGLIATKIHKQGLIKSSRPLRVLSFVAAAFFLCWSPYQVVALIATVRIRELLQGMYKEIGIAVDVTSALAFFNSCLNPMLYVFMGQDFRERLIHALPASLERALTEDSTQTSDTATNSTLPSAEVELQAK
pEC50: −log10 of the molar value.
Parameter Measured: pEC50

COc1cc(F)c(-n2cc(-c3cccc(F)c3)nc2NC(=O)c2ccc(OC(F)F)cc2)c(F)c1 ... 8.15
COc1cc(F)c(-n2cc(C(=O)NCc3cc[nH]n3)nc2NC(=O)c2ccc(OC(F)F)cc2)c(F)c1 ... 7.32
COc1cc(F)c(-n2c(NC(=O)c3ccc(OC(F)F)cc3)nc(-c3ccccc3)c2C)c(F)c1 ... 8.10
COc1cc(F)c(-n2cc(-c3ccccc3F)nc2NC(=O)c2ccc(OC(F)F)cc2)c(F)c1 [WO2022076764, Example 25] ... 8.22
COc1cc(F)c(-n2cc(-c3ccc4ccccc4c3)nc2NC(=O)c2ccc(OC(F)F)cc2)c(F)c1 ... 6.66

[a] COc1cc(F)c(-n2cc(-c3ccc(Cl)c(C)c3)nc2NC(=O)c2ccc(OC(F)F)cc2)c(F)c1
[b] COc1ccc(-n2cc(C(C)(C)C)nc2NC(=O)c2ccc(OC(F)F)cc2)cc1
Could you point out whether the larger pEC50 belongs to a or to b ? Indicate your choice by writing its label. b
(b: 7.74, a: 7.33)
